EC50 reference
Target: Voltage-dependent T-type calcium channel subunit alpha-1H (Homo sapiens, UniProt O95180);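 also: channel activity triggered by adding a high calcium stimulation buffer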
Sequence (O95180 whole entry): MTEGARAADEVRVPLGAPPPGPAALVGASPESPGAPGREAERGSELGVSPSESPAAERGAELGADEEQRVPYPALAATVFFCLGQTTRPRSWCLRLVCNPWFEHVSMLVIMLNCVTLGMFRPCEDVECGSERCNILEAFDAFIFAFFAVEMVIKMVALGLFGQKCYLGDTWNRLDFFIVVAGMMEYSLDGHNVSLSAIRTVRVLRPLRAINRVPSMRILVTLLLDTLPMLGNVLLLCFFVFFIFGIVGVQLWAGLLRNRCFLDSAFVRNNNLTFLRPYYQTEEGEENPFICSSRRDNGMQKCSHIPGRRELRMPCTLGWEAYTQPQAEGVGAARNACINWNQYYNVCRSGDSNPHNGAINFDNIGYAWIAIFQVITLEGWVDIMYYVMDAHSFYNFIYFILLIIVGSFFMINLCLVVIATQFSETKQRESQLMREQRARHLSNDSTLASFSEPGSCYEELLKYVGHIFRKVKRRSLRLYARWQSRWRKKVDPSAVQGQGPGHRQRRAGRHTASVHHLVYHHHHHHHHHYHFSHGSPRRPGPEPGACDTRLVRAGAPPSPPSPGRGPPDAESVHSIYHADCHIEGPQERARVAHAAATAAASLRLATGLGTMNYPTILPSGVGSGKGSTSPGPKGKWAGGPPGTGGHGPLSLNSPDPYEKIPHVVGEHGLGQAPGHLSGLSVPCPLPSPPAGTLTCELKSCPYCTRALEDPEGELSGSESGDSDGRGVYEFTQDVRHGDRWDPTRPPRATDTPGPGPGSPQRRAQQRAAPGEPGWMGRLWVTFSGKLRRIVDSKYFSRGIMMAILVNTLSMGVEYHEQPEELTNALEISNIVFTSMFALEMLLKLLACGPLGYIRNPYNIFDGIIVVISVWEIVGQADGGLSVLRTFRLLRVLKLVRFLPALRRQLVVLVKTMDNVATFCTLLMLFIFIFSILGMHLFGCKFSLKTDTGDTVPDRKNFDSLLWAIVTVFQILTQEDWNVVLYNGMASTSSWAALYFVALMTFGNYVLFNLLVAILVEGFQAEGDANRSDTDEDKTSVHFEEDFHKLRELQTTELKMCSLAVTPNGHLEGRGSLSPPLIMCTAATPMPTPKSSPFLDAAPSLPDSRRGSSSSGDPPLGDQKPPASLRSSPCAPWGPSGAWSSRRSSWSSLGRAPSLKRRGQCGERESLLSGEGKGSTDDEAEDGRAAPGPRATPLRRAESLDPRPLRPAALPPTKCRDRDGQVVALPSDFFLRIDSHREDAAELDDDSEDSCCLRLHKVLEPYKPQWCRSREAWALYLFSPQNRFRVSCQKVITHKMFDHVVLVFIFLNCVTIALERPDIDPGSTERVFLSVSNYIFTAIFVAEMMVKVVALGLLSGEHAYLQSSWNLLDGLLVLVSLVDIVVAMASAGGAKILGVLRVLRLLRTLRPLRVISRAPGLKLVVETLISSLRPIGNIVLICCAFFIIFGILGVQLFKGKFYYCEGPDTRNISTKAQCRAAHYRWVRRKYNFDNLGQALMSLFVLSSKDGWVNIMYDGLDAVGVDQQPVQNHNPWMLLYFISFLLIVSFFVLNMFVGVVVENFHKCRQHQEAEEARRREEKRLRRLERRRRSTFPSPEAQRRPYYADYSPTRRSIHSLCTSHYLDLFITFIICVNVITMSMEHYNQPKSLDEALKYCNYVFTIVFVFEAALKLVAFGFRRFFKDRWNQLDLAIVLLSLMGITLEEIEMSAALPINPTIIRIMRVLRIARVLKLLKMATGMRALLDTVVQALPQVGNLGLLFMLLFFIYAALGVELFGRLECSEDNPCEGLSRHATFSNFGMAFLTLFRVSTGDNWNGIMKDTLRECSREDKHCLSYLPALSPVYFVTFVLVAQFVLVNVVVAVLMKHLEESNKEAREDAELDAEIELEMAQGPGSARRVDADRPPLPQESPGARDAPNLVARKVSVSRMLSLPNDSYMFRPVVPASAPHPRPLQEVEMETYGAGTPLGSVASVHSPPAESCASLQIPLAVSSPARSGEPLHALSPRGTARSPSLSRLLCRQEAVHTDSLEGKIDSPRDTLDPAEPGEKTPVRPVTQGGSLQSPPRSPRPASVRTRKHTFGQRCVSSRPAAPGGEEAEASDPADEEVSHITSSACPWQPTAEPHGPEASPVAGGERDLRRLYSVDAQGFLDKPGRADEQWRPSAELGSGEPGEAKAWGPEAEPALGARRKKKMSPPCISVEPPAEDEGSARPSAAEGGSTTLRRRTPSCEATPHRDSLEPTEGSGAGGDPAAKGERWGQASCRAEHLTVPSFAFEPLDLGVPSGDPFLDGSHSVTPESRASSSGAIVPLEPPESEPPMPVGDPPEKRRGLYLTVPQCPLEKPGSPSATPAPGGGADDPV
Format: functional
Calls of active or inactive are those of the source.

Before answering, review these 5 worked examples.
// fetch EC50 given entry Cc1nc2ccccc2c2oc(C(=O)NCC3COc4ccccc4O3)cc12 (stereo unspecified)
7.77 µM (active)

// fetch EC50 given entry Fc1ccc(Cn2nnnc2C(c2ccc(Cl)cc2)N2CCSCC2)cc1 (stereo unspecified)
9.78 µM (active)

// fetch EC50 given entry O=C1CC(N2CCN(c3ccccn3)CC2)C(=O)N1CC(c1ccccc1)c1ccccc1 (stereo unspecified)
5.85 µM (active)

// fetch EC50 given entry `Cc1ccc2cc(/C=C3\N=C(c4ccccc4)OC3=O)c(N3CCOCC3)nc2c1`
10.8 µM (active)

// fetch EC50 given entry `O=S(=O)(NCCc1csc(-c2ccccc2)n1)c1ccc2c(c1)OCCO2`
23.2 µM (active)

Now consider a different compound.
// fetch EC50 given entry `CS(=O)(=O)N1CCN(c2ccccc2NC(=O)CSc2ccc(Cl)cc2)CC1`
7.39 µM (active)

---

Molecular target: Corticotropin-releasing factor receptor 2/Corticotropin-releasing factor-binding protein (Homo sapiens, UniProt P24387+Q13324)
Sequence (Q13324 whole entry): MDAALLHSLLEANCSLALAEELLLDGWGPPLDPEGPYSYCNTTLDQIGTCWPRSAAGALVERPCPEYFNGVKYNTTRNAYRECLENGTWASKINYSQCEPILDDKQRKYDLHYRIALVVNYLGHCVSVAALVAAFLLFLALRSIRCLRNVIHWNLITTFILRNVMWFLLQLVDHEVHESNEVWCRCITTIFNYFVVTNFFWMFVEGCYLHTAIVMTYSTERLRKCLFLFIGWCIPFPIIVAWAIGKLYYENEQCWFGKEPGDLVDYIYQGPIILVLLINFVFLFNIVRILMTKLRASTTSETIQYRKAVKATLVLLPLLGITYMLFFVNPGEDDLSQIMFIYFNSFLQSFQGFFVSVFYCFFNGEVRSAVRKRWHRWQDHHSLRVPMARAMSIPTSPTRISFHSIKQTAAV
Sequence (P24387 whole entry): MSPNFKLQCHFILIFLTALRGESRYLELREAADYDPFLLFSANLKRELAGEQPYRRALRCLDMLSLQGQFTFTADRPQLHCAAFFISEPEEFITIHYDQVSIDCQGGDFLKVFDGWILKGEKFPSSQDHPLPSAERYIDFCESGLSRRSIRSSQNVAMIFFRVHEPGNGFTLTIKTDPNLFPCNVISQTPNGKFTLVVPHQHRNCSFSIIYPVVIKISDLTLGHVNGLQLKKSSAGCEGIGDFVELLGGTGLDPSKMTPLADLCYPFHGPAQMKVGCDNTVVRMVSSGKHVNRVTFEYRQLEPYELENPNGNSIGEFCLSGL
Assay: activators of CRF receptor 2 with binding protein – uHTS hits, confirmation (AID 602473)
Type: functional
Conditions: read-out: EC50_Mean
Calls of active or inactive are those of the source.
Form entry, call: pick from active, inactive

Answered examples (3):
Called result for `O=C(NC(=S)NNC(=O)c1cccs1)c1ccc(Br)o1`
active

Called result for `O=S(=O)(Nc1nc2ccccc2s1)c1ccc(Cl)s1`
inactive

Called result for `COc1ccccc1-c1c(NC(=O)C(C)C)n(C)c2ccccc2c1=O`
inactive

More entries:
Called result for Cc1ccc(C2(C)CC(C)(C)N(C(=O)CSc3nnc(C)s3)c3ccccc32)cc1 (stereo unspecified)
inactive

Called result for CC1=C(C(=O)NCc2ccccn2)C2(CCC(C)CC2)OC1=O (stereo unspecified)
inactive

Called result for `Clc1ccc(NN(Cc2ccncc2)c2ccc(Cl)cc2)cc1`
inactive

Called result for `CCOC(=O)c1sc(NC(=S)NC(=O)c2cccc(OC)c2)nc1C`
active

Called result for `Cc1ccc2oc(=O)c(/C=C(\O)c3ccccc3)nc2c1`
active

---

EC50 reference
System: Streptococcus sp. 'group A'
Test: growth inhibition of control SK(-) GAS strain, dose response, counter-screen for streptokinase expression inhibitor project, luminescence, kanamycin, BacTiterGlo, confirmation (AID 1900)
Assay type: functional, organism-based
Activity calls are given as the source filed them.

Before answering, review these 5 worked examples.
// fetch EC50 given entry `O=C(O)CN1C(=O)/C(=C\c2cc(Br)ccc2OCc2ccc(Cl)cc2)SC1=S`
1580 nM (active)

// fetch EC50 given entry `CC(C)(C)c1ccc(OCCCC(=O)NC2=NCCS2)cc1`
19800 nM (active)

// fetch EC50 given entry `CCOC(=O)C(C(=O)OCC)c1cc(Br)c2noc3c2c1C(=O)c1ccccc1-3`
2900 nM (active)

// fetch EC50 given entry `CCOc1cc(/C=C2\C(=O)N(c3nc(-c4ccc(Br)cc4)cs3)N=C2c2ccccc2)ccc1O`
1780 nM (active)

// fetch EC50 given entry `Cc1nn2c(COc3ccc(NC(=O)c4ccccc4)cc3)nnc2c2ccccc12`
854 nM (active)

Now consider a different compound.
// fetch EC50 given entry `CCn1cc(CN2CCC(C(=O)Nc3ccc(Oc4cccnc4)cc3)CC2)cn1`
> 150000 nM (not active)

---

Assay: NIH-3T3 fibroblast cytotoxicity, dose response, cytotoxicity control, cell-based, fluorescence, Alamar Blue, secondary assay (AID 2327);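 also: NIH-3T3 mouse fibroblasts cultured with fluconazole at 8 µg/mL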
Type: functional
Calls of active or inactive are those of the source.
measurement_label: EC50

Before answering, review these 3 worked examples.
// fetch EC50 given entry `CC(=O)N1CCC(=NNC(=O)c2cc3ccccc3cc2O)CC1`
> 150 µM (inactive)

// fetch EC50 given entry `O=C(CCS(=O)(=O)c1ccc(F)cc1)Nc1nc(-c2ccncc2)cs1`
18.3 µM (inconclusive)

// fetch EC50 given entry `O=C(Nc1nc2ccc(S(=O)(=O)N3CCCCC3)cc2s1)c1ccncc1`
130 µM (active)

Now consider a different molecule.
// fetch EC50 given entry COc1ccc(C(=O)C(CN2CCCC2)c2ccccc2)cc1 (centres undefined)
59.6 µM (active)

---

IC50 reference
Biological target: Leucine aminopeptidase (Plasmodium falciparum 3D7)
Sequence (Q8IL11 whole entry): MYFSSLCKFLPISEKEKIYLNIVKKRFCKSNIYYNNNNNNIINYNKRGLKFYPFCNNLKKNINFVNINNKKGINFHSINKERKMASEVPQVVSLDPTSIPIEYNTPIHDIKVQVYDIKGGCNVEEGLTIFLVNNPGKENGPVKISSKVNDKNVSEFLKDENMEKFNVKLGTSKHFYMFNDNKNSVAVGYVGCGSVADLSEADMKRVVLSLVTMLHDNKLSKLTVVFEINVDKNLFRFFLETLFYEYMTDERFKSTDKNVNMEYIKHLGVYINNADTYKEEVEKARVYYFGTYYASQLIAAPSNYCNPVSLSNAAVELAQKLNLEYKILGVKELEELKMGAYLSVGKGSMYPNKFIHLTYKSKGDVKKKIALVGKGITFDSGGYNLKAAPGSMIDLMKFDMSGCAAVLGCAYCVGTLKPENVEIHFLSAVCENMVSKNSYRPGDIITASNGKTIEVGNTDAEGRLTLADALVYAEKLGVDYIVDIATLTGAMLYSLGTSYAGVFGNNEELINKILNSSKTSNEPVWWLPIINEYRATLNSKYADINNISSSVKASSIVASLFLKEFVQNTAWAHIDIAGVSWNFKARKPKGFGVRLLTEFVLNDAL
Assay: P. falciparum M17LAP inhibitors, primary screen, biochemical, fluorogenic H-Leu-NHMec substrate, 1536-well (AID 1619)
Assay type: functional
The source made the active and inactive calls.

Before answering, review these 4 worked examples.
// fetch IC50 given entry O=C(O)c1cccc(-c2ccc(/C=N/NC(=O)C3COc4ccccc4O3)o2)c1 (configuration not stated)
45.6 µM (active)

// fetch IC50 given entry `O=C(O)Cc1ccc(NC(=O)Nc2ccc(Br)cc2)cc1`
< 1 µM (active)

// fetch IC50 given entry `Cc1ccc(-n2c(SCC(=O)OC(C)C)nnc2-c2ccco2)cc1`
31.2 µM (active)

// fetch IC50 given entry `COc1cccc(NC(=O)CSc2nc3c(oc4ccccc43)c(=O)[nH]2)c1`
< 1 µM (active)

More entries:
// fetch IC50 given entry `CCOC(=O)/C(C#N)=C\C=C1C=CN(C)C=C1`
90 µM (active)

// fetch IC50 given entry CC1=C(C)CC(C(=O)Nc2cccc(Cl)c2)C(C(=O)O)C1 (configuration not stated)
2.38 µM (active)

// fetch IC50 given entry `Clc1ccc(Nc2nc[nH]n2)cc1`
1.53 µM (active)

---

Molecular target: UniProt P61088
Sequence (P61088 whole entry): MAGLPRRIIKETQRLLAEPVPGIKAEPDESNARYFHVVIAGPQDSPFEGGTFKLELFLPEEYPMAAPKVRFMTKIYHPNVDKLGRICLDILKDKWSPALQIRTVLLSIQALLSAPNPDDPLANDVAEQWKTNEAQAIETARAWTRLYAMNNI
Assay type: functional
Active and inactive are the calls of the source.
Form entry, call: pick from YES for active, NO for inactive

Called result for CN1CCN(C2Cc3ccccc3Sc3ccc(Cl)cc32)CC1 (centres undefined)
NO

More entries:
Called result for CCc1ccc(OCCNc2cc(N3CCNC(C)C3)ccc2[N+](=O)[O-])cc1 (centres undefined)
NO

Called result for `COC(=O)C1=C(C)N(Cc2ccccc2)C(NCc2cccc(C(F)(F)F)c2)=N[C@H]1c1cccc(F)c1`
NO

Called result for `CCOc1ccc(-c2nc(S(=O)(=O)c3ccccc3)c(NC)o2)cc1`
YES

---

AC50 reference
Molecular target: Cytochrome P450 2C19 (Homo sapiens)
Sequence (P33261 whole entry): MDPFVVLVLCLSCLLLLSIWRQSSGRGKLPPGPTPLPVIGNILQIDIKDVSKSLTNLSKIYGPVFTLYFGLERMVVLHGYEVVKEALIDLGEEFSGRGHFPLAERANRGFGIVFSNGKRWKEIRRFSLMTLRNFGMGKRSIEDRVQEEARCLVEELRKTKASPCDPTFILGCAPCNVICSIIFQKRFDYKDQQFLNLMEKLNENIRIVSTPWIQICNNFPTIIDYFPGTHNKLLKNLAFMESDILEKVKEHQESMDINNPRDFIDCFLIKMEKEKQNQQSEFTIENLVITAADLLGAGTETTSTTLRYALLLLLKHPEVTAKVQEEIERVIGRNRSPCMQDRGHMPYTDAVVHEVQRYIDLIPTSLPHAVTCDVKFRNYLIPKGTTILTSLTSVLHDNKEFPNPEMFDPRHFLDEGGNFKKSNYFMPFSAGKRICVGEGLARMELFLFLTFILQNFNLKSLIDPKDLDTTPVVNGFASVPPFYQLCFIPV
Assay: Cytochrome panel assay with activity outcomes. Panel member name: p450-cyp2c19 Compounds with AC50 equal or less than 10 uM are considered active
Assay type: functional
Settings: read-out: AC50

// fetch AC50 given entry `N=c1ccn2c(n1)O[C@@H]1[C@@H](O)[C@H](CO)O[C@H]12`
0.0316 µM (inconclusive)

// fetch AC50 given entry `Cn1ncc2c(Nc3cccc(Cl)c3)nc(Nc3cccc(Cl)c3)nc21`
3.16 µM (inconclusive)

// fetch AC50 given entry `CCOc1ccc(C(=O)Nc2ccc(NC(=O)c3ccco3)c(Cl)c2)cc1Br`
0.398 µM (inconclusive)

More entries:
// fetch AC50 given entry `CCc1cc2c(nc1CC)CCN(CC/C(C)=N/OC[C@@H](O)[C@@H]1O[C@@H]3OC(C)(C)O[C@@H]3[C@H]1O)C2`
0.0316 µM (inconclusive)

// fetch AC50 given entry `N#Cc1ccc(C(c2ccc(C#N)cc2)n2cncn2)cc1`
7.94 µM (inconclusive)

// fetch AC50 given entry `Cc1sc2nc(SCC(=O)C(C)(C)C)n(Cc3ccco3)c(=O)c2c1C`
5.01 µM (inconclusive)

// fetch AC50 given entry `c1ncc(-c2ccoc2)c(NC2CC2)n1`
39.8 µM (inconclusive)

// fetch AC50 given entry `FC(F)(F)c1cnc(N2CCC(=NOCc3ccc(Cl)cc3)CC2)c(Cl)c1`
20 µM (inconclusive)

// fetch AC50 given entry `Clc1ccc(Nc2nc[nH]n2)cc1`
14.1 µM (inconclusive)

// fetch AC50 given entry `COc1cccc(/N=C/c2c[nH]nc2O)c1`
35.5 µM (inconclusive)

// fetch AC50 given entry `CCNC(=Nc1ccc(Cl)cc1)c1cccnc1`
1.78 µM (inconclusive)

// fetch AC50 given entry `CCOC(=O)CSc1cc(C(F)(F)F)nc(-c2ccccn2)n1`
17.8 µM (inconclusive)

// fetch AC50 given entry `COC(=O)[C@@]1(Cc2ccc(OC)cc2)[C@H]2c3cc(C(=O)N4CCCC4)n(Cc4ccc(OC(F)(F)F)cc4)c3C[C@H]2CN1C(=O)c1ccccc1`
7.94 µM (inconclusive)

// fetch AC50 given entry `CC(C)c1nccn1Cc1ccc(Cl)cc1Cl`
2 µM (inconclusive)

---

Target: Caspase-3 (Homo sapiens, UniProt P42574);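 also: Dose-response selectivity test against caspase-3 for candidate inhibitors of sentrin-specific proteases (SENPs)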
Sequence (P42574 whole entry): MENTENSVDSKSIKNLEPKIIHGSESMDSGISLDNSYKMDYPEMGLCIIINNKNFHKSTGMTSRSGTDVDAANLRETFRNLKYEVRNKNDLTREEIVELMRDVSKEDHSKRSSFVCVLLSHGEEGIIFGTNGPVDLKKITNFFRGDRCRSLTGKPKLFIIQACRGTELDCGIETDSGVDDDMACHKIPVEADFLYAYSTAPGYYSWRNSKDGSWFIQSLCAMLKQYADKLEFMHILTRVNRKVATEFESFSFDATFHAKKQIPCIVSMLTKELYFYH
Type: functional
Active and inactive are the calls of the source.
IC50 reference

Before answering, review these 4 worked examples.
// fetch IC50 given entry `C=CCNC1=C(Cl)C(=O)c2ccccc2C1=O`
3.62 µM (active)

// fetch IC50 given entry `CN(C)c1ccc(-c2nnc(-c3cccs3)o2)cc1`
22.3 µM (active)

// fetch IC50 given entry `Cc1[nH]n(-c2ccccc2)c(=O)c1N=Nc1cccc(C(=O)O)c1`
> 100 µM (inactive)

// fetch IC50 given entry `Cc1n[nH]c(O)c1N=Nc1ccc(Br)c(Cl)c1`
2.41 µM (active)

Now consider a different molecule.
// fetch IC50 given entry `O=C1c2ccccc2C(=O)N1CCSc1ccccc1`
14.5 µM (active)
